- Target: T1, glucose-dependent insulinotropic peptide (gastric inhibitory polypeptide) receptor (GIPR), primary cAMP assay (human, UniProt P48546 22-466)
- T1 sequence (looked up): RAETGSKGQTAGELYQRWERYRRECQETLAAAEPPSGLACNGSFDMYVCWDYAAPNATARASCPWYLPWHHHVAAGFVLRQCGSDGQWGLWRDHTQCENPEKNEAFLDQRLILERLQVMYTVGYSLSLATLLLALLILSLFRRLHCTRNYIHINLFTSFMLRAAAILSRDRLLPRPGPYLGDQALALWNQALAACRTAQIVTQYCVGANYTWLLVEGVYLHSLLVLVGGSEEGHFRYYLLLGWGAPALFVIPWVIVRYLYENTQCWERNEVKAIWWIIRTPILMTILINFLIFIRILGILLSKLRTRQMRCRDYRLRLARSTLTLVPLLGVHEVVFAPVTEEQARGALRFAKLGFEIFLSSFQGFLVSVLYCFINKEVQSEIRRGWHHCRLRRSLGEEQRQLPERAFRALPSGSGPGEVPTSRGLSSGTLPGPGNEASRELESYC
- Method Description: cell-based or functional assay
Starred links: 1 amine or outer side, 2 acyl side, 3 side chain; linkers in the order of their positions; H or OH if unused. Non-standard residues stand in square brackets, D forms with d. Groups on a side chain read outwards from the residue. Primed or numbered codes have the meaning given here. No end group written: not given here. *: point of attachment. γGlu = O=C(O)[C@H](CCC(=O)[*:2])N[*:1]; Palmitoyl = CCCCCCCCCCCCCCCC(=O)*; αMeF = C[C@](N)(Cc1ccccc1)C(=O)O; αMeK = C[C@](N)(CCCCN)C(=O)O; Lauroyl = CCCCCCCCCCCC(=O)*; αMeS = C[C@](N)(CO)C(=O)O; PEG2′ = not defined here; Aib = CC(C)(N)C(=O)O
Each entry below carries its reported Primary assay EC50 (cAMP), n1.
Measurement Type: Primary assay EC50 (cAMP), n1

{"columns": ["Binder", "Value Reported"],
 "data": [
  ["H[Aib]EGS[αMeF]TSDVSK([PEG2′-PEG2′-γGlu-Palmitoyl])YLEGEAA[αMeK]EFIK([PEG2′-PEG2′-γGlu-Palmitoyl])WVVEGG-NH2 [SEQ ID NO: 251]", "21.3 nM"],
  ["H[Aib]EGTFTSDVSK([PEG2′-PEG2′-γGlu-Palmitoyl])FLEGEAAEEFIK([PEG2′-PEG2′-γGlu-Palmitoyl])WVVEGG-NH2 [SEQ ID NO: 243]", "21.5 nM"],
  ["H[Aib]EGS[αMeF]TSDV[αMeS]SK([PEG2′-PEG2′-γGlu-Lauroyl])LEGEAA[αMeK]EFIAK([PEG2′-PEG2′-γGlu-Lauroyl])VVEGG-NH2 [SEQ ID NO: 263]", "21.5 nM"],
  ["H[Aib]EGS[αMeF]TSDV[αMeS]SK([PEG2′-PEG2′-γGlu-Lauroyl])LEGEAA[αMeK]EFIAWK([PEG2′-PEG2′-γGlu-Lauroyl])VEGG-NH2 [SEQ ID NO: 264]", "22.6 nM"],
  ["H[Aib]EGTFTSDVSK([PEG2′-PEG2′-γGlu-Palmitoyl])FLEGEAAEEFIK([PEG2′-PEG2′-γGlu-Palmitoyl])FVVEGG-NH2 [SEQ ID NO: 245]", "21.6 nM"],
  ["H[Aib]EGS[αMeF]TSDVSK([PEG2′-PEG2′-γGlu-Lauroyl])YLEGEAA[αMeK]EFIK([PEG2′-PEG2′-γGlu-Lauroyl])WVVEGG-NH2 [SEQ ID NO: 249]", "22.1 nM"],
  ["H[Aib]EGS[αMeF]TSDV[αMeS]SK([PEG2′-PEG2′-γGlu-Palmitoyl])LEGEAA[αMeK]E[αMeF]IAK([PEG2′-PEG2′-γGlu-Palmitoyl])VVEGG-NH2 [SEQ ID NO: 409]", "21.5 nM"],
  ["H[Aib]EGTFTSDVSK([PEG2′-PEG2′-γGlu-Lauroyl])FLEGEAAEEFIK([PEG2′-PEG2′-γGlu-Lauroyl])FVVEGG-NH2 [SEQ ID NO: 239]", "22.5 nM"]
]}
